Cited source: ChEMBL document CHEMBL1765075

EXPERIMENTAL_PROTOCOL: Octanol-phosphate buffer partition coefficient, log D of the compound at pH 7.4 by HPLC analysis
Type: physicochemical
OBSERVABLE: logD

MOLECULAR_STRING | logD
CNc1cncc(-c2c[nH]c(=O)c(NC(=O)c3ccc(N4CCC[C@H]4CN4CCCC4)cc3)c2)n1 | 2.8
CNc1cncc(-c2c[nH]c(=O)c(NC(=O)c3ccc(N4CCC[C@H]4CN4CCCC4)cc3)c2)c1 | 2.9
CNc1cc(C#N)cc(-c2c[nH]c(=O)c(NC(=O)c3ccc(N4CCC[C@H]4CN4CCCC4)cc3)c2)c1 | 3.9
CNc1cc(F)cc(-c2c[nH]c(=O)c(NC(=O)c3ccc(N4CCC[C@H]4CN4CCCC4)cc3)c2)c1 | 3.9

---

SYSTEM_NAME: Receptor-type tyrosine-protein kinase FLT3 (Homo sapiens, UniProt P36888)
Sequence (P36888 whole entry): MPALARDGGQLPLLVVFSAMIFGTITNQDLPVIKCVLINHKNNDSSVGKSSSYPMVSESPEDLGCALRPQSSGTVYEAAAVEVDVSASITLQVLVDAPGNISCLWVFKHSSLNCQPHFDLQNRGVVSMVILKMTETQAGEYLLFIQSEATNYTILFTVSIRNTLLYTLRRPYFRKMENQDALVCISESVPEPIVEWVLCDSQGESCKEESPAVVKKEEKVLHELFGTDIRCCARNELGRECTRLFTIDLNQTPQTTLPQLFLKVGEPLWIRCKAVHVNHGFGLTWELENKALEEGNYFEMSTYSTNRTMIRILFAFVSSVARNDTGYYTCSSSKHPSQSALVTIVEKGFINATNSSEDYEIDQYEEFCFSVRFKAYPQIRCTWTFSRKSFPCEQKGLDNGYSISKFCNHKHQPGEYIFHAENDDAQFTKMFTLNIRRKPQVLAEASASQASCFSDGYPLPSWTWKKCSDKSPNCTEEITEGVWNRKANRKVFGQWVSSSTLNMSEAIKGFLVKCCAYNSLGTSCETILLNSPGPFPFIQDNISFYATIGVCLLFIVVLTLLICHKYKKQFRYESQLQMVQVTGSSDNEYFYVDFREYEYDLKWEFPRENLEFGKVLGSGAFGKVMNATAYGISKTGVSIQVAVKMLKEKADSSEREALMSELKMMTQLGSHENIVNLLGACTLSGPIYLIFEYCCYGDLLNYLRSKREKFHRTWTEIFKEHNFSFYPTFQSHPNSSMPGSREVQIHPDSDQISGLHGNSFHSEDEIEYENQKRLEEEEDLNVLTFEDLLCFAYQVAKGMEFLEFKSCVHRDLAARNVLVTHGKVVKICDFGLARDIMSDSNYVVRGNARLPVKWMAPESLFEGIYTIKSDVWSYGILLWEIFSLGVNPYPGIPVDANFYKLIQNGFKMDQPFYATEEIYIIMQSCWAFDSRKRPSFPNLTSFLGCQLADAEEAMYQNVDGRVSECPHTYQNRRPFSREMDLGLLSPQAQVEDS
EXPERIMENTAL_PROTOCOL: Inhibition of Flt3 after 20 mins by radiometric phosphate incorporation assay
OBSERVABLE: Ki (nM)

MOLECULAR_STRING | Ki, nM
CNc1cncc(-c2c[nH]c(=O)c(NC(=O)c3ccc(N4CCC[C@H]4CN4CCCC4)cc3)c2)n1 | 20

(P) CNc1cc(F)cc(-c2c[nH]c(=O)c(NC(=O)c3ccc(N4CCC[C@H]4CN4CCCC4)cc3)c2)c1
(Q) CNc1cncc(-c2c[nH]c(=O)c(NC(=O)c3ccc(N4CCC[C@H]4CN4CCCC4)cc3)c2)c1
(R) CC(C)(C)c1ccc(C(=O)Nc2cc(-c3ccncc3)c[nH]c2=O)cc1
(S) CNc1cc(C#N)cc(-c2c[nH]c(=O)c(NC(=O)c3ccc(N4CCC[C@H]4CN4CCCC4)cc3)c2)c1
(T) CNc1nccc(-c2c[nH]c(=O)c(NC(=O)c3ccc(N4CCCCC4)cc3)c2)n1
*Q* # ascending order, key=Ki # answer = labels listed in requested order
*A* T, R, P, Q, S
(T: 5 nM, R: 11 nM, P: 80 nM, Q: 140 nM, S: 410 nM)

(I) CNc1cccc(-c2c[nH]c(=O)c(NC(=O)c3ccc(N4CCCCC4)cc3)c2)n1
(II) CNc1cncc(-c2c[nH]c(=O)c(NC(=O)c3ccc(N4CCCCC4)cc3)c2)n1
*Q* Parameter check: reported Ki is higher for which label, I or II ? Label of pick, please.
*A* II

---

SYSTEM_NAME: Platelet-derived growth factor receptor alpha (Homo sapiens, UniProt P16234)
Sequence (P16234 whole entry): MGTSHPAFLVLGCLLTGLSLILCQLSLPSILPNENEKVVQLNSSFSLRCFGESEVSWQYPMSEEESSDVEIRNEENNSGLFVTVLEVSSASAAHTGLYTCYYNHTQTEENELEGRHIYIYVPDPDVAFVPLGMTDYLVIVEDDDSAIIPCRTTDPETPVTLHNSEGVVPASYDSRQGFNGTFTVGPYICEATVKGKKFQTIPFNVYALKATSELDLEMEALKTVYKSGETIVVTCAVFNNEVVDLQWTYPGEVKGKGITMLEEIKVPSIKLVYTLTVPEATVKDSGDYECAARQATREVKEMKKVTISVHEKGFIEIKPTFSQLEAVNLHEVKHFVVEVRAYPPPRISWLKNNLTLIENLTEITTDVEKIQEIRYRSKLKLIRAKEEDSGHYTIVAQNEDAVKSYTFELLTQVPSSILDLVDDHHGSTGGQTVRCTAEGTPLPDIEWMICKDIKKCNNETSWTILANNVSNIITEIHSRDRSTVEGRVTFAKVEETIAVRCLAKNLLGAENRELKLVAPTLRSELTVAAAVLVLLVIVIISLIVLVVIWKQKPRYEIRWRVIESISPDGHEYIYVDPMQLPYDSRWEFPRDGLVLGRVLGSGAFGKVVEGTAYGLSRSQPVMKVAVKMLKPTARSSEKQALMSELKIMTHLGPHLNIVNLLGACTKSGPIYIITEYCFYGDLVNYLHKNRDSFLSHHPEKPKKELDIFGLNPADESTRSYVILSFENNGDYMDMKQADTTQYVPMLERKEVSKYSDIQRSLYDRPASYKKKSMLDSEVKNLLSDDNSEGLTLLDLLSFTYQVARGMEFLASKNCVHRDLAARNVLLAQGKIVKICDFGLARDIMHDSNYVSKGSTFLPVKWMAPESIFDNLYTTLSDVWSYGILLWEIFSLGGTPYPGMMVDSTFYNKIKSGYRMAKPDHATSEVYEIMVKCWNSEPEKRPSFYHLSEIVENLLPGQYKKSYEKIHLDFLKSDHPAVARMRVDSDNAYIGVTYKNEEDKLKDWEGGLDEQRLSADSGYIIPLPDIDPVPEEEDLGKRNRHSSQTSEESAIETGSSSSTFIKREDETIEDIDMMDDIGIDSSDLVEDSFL
OBSERVABLE: Ki

Entry CNc1cncc(-c2c[nH]c(=O)c(NC(=O)c3ccc(N4CCC[C@H]4CN4CCCC4)cc3)c2)n1 , tested on Platelet-derived growth factor receptor alpha (Homo sapiens, UniProt P16234), has a reported Ki of > 1 µM

---

SYSTEM_NAME: Mast/stem cell growth factor receptor Kit (Homo sapiens, UniProt P10721)
Sequence (P10721 whole entry): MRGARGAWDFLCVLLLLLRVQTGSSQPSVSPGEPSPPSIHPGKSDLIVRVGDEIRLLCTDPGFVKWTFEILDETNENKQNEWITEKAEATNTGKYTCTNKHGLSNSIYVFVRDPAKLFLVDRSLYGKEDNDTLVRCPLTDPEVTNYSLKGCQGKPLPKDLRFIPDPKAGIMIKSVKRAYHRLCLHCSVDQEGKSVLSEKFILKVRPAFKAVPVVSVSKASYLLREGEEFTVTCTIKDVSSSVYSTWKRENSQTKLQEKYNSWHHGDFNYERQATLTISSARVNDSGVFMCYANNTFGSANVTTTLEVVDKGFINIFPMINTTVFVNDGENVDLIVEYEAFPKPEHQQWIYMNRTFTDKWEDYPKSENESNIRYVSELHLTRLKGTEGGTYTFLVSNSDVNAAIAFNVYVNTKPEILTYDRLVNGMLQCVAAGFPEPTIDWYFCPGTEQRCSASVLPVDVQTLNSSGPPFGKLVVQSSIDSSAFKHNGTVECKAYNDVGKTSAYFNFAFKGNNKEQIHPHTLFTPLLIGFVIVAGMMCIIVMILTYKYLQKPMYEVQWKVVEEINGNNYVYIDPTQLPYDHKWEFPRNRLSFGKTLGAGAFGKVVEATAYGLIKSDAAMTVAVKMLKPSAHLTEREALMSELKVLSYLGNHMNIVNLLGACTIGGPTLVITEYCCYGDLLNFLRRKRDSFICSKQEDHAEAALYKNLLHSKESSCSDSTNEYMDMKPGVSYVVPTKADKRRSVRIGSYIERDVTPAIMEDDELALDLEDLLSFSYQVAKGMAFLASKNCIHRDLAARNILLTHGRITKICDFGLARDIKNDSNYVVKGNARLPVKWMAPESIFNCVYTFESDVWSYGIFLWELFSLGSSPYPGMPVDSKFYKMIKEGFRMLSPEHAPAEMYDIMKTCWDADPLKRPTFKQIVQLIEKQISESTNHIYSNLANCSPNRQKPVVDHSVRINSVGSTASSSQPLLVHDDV
EXPERIMENTAL_PROTOCOL: Inhibition of c-Kit after 45 mins by radiometric phosphate incorporation assay
pKi: −log10 of the molar value.
OBSERVABLE: pKi

Would you please look over these solved cases?
MOLECULAR_STRING | SYSTEM_NAME | pKi
CNc1cc(-c2c[nH]c(=O)c(NC(=O)c3ccc(N4CCCCC4)cc3)c2)ncn1 | Mast/stem cell growth factor receptor Kit (Homo sapiens, UniProt P10721) | 7.08
CNc1cncc(-c2c[nH]c(=O)c(NC(=O)c3ccc(N4CCCCC4)cc3)c2)c1 | Mast/stem cell growth factor receptor Kit (Homo sapiens, UniProt P10721) | 6.57
CN(C)c1ccc(C(=O)Nc2cc(-c3ccncc3)c[nH]c2=O)cc1 | Mast/stem cell growth factor receptor Kit (Homo sapiens, UniProt P10721) | 7.34

(A) CC(C)(C)c1ccc(C(=O)Nc2cc(-c3ccncc3)c[nH]c2=O)cc1
(B) CNc1cncc(-c2c[nH]c(=O)c(NC(=O)c3ccc(N4CCCCC4)cc3)c2)n1
*Q* Compare pKi: is it lower for A or for B ? Label of pick, please.
*A* B
(B: 6.81, A: 7.57)

(P) CNc1cccc(-c2c[nH]c(=O)c(NC(=O)c3ccc(N4CCCCC4)cc3)c2)c1
(Q) O=C(Nc1cc(-c2ccncc2)c[nH]c1=O)c1ccc(N2CCCCC2)cc1
*Q* Compare pKi: is it lower for P or for Q ? Label of pick, please.
*A* P
(P: 7.09, Q: 7.92)

---

EXPERIMENTAL_PROTOCOL: Permeability across apical to basolateral side of human Caco2 cells after 120 mins by LC-MS/MS analysis
Type: ADME, cell-based
PARTICULARS: Caco-2, read-out: permeability
OBSERVABLE: Papp A→B at 2 h (×10⁻⁶ cm/s)

MOLECULAR_STRING | QUANTITATIVE_READOUT
CNc1cc(F)cc(-c2c[nH]c(=O)c(NC(=O)c3ccc(N4CCC[C@H]4CN4CCCC4)cc3)c2)c1 | 3.3

(P) CNc1cc(C#N)cc(-c2c[nH]c(=O)c(NC(=O)c3ccc(N4CCC[C@H]4CN4CCCC4)cc3)c2)c1
(Q) CNc1cncc(-c2c[nH]c(=O)c(NC(=O)c3ccc(N4CCC[C@H]4CN4CCCC4)cc3)c2)n1
*Q* Compare Papp A→B at 2 h: is it lower for P or for Q ? Label of pick, please.
*A* P

---

SYSTEM_NAME: Serine/threonine-protein kinase Sgk1 (Homo sapiens)
Sequence (O00141 whole entry): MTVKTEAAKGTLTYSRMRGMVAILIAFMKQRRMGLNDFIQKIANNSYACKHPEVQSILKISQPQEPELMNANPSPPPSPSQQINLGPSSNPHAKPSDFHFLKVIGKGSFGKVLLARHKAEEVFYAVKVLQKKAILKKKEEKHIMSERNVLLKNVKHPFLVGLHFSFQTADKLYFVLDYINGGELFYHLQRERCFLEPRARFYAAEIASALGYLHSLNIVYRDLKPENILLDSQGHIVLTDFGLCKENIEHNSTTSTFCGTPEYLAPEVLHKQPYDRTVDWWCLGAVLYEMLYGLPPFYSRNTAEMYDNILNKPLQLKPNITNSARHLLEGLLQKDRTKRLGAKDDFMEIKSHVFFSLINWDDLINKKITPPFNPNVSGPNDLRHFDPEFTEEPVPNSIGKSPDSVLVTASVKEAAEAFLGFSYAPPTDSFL
pKi: −log10 of the molar value.
OBSERVABLE: pKi

Noted for CNc1cncc(-c2c[nH]c(=O)c(NC(=O)c3ccc(N4CCC[C@H]4CN4CCCC4)cc3)c2)n1 : its pKi reads < 6.00

---

Sequence of the target: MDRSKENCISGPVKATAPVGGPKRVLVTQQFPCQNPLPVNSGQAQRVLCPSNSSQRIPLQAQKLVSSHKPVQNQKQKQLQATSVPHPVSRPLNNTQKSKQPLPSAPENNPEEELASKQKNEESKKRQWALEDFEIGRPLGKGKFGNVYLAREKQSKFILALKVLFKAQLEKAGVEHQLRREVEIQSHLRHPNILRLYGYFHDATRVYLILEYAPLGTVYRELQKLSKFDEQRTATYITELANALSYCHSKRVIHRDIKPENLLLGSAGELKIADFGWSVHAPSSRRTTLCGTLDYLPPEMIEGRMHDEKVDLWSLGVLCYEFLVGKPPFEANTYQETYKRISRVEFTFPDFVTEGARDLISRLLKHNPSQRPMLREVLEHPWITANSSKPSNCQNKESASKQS
OBSERVABLE: Ki

Noted for CNc1cncc(-c2c[nH]c(=O)c(NC(=O)c3ccc(N4CCC[C@H]4CN4CCCC4)cc3)c2)n1 : its Ki reads > 1000 nM

---

SYSTEM_NAME: Mast/stem cell growth factor receptor Kit (Homo sapiens, UniProt P10721)
EXPERIMENTAL_PROTOCOL: Inhibition of KIT
OBSERVABLE: pKi
Note: pKi values are expressed as the negative base-10 logarithm of concentration in M.

Noted for CNc1cncc(-c2c[nH]c(=O)c(NC(=O)c3ccc(N4CCC[C@H]4CN4CCCC4)cc3)c2)n1 : its pKi reads 6.70

---

SYSTEM_NAME: Ribosomal protein S6 kinase alpha-1 (Homo sapiens, UniProt Q15418)
Sequence (Q15418 whole entry): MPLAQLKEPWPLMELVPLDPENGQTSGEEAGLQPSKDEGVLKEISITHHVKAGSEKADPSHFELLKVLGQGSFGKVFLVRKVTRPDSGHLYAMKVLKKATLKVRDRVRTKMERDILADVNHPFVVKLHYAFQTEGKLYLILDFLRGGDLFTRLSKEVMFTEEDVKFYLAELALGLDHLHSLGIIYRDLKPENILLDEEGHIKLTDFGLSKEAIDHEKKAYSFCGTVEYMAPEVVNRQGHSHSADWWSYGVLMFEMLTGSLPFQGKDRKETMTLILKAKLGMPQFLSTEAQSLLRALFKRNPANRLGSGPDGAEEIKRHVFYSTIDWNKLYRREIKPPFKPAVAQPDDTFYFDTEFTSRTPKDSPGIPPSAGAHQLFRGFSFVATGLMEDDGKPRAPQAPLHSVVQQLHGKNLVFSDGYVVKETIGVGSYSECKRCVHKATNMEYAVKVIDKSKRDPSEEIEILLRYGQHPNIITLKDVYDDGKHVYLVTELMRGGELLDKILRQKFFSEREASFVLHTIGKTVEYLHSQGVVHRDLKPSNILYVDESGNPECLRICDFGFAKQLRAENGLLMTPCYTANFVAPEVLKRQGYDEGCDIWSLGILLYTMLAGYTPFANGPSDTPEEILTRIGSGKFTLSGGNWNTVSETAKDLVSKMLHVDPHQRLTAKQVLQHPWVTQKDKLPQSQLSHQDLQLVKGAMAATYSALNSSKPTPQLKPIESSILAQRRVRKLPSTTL
OBSERVABLE: Ki

Entry CNc1cncc(-c2c[nH]c(=O)c(NC(=O)c3ccc(N4CCC[C@H]4CN4CCCC4)cc3)c2)n1 , tested on Ribosomal protein S6 kinase alpha-1 (Homo sapiens, UniProt Q15418), has a reported Ki of > 1000 nM

---

EXPERIMENTAL_PROTOCOL: Inhibition of AMPK
pKi: −log10 of the molar value.
OBSERVABLE: pKi

Noted for CNc1cncc(-c2c[nH]c(=O)c(NC(=O)c3ccc(N4CCC[C@H]4CN4CCCC4)cc3)c2)n1 : its pKi reads < 6.00

---

SYSTEM_NAME: Tyrosine-protein kinase JAK3 (Homo sapiens)
Sequence (P52333 whole entry): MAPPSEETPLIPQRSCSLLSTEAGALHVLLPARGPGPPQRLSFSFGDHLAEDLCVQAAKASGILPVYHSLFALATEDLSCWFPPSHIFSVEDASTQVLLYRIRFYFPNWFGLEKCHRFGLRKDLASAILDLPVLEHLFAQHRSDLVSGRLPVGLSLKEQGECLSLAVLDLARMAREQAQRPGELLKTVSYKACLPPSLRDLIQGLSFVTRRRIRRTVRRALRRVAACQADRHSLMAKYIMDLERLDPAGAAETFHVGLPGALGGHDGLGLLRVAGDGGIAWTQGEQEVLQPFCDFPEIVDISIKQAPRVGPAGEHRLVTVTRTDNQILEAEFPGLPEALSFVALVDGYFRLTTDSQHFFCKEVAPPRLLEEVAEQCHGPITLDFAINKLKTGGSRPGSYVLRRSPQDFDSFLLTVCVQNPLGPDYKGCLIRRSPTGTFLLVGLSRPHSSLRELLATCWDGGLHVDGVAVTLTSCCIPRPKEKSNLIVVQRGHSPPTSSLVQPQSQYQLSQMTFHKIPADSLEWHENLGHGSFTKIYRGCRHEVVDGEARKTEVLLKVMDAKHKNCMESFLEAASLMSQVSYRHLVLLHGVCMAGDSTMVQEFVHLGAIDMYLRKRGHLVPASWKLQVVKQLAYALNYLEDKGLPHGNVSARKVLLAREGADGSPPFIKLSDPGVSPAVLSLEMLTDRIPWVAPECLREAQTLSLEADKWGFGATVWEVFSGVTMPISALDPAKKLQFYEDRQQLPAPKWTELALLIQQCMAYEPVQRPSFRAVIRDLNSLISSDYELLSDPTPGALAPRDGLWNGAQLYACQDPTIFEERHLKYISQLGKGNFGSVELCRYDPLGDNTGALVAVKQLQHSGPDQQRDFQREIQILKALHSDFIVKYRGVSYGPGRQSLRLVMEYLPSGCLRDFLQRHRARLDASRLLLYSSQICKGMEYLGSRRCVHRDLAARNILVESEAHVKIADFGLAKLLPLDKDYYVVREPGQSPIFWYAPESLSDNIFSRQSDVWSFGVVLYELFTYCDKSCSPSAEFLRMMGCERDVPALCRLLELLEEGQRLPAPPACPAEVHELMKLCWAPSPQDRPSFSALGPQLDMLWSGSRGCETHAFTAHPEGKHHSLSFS
OBSERVABLE: pKi
Note: pKi values are expressed as the negative base-10 logarithm of concentration in M.

Noted for CNc1cncc(-c2c[nH]c(=O)c(NC(=O)c3ccc(N4CCC[C@H]4CN4CCCC4)cc3)c2)n1 : its pKi reads 6.46
